Literature compilation of Ki measurements on Histamine H3 receptor (Rattus norvegicus, UniProt Q9QYN8).
Sequence (Q9QYN8 whole entry): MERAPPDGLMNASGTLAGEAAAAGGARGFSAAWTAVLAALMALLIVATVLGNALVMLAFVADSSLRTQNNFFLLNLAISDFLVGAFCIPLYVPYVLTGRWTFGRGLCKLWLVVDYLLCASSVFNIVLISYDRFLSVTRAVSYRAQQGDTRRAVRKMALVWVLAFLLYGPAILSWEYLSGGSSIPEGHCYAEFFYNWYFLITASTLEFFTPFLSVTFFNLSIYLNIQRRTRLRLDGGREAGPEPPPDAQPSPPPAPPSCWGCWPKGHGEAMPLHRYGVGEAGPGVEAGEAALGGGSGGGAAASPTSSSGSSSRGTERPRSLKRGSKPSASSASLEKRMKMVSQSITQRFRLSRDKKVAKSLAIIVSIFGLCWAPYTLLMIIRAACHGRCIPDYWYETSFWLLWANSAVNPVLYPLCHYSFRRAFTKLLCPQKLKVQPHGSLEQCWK
measurement name: Ki (nM)

* CCN(CC)CCCOc1ccc(-c2ccc(C(=O)NC(C)C)cc2)cc1 | 16.2
* C[C@H]1CC(=O)NN=C1c1ccc(OC2CCN(C3CCC3)CC2)cc1 | 13
* C(=C/c1c2c(nc3ccccc13)CCCCC2)/CCN1CCCCC1 | 275
* Cn1nc(-c2ccc(OC3CCN(C4CCC4)CC3)nc2)ccc1=O | 8.6
* CCCCCC(=O)c1ccc(OCCCN2CCN(C(=O)OCC(C)C)CC2)cc1 | 10
* C[C@@H]1CCCN1CCCOc1ccc(C(=O)CN2CCN(C(=O)c3ccco3)CC2)cc1 | 16
* O=C(N1CCOCC1)N1C[C@@H]2CC=C(c3ccc(CCN4CCCC4)cc3)[C@@H]2C1 | 12
* CCNC(=O)[C@H]1CC(=O)[C@@]2(C)CC[C@@H]3c4ccc(OCCCN5CCC[C@H]5C)cc4CC[C@H]3[C@H]12 | 9
* Cc1cccc(-n2ncc(-c3ccc(OCCCN4CCC[C@H]4C)cc3)cc2=O)n1 | 4.4
